molecular target: Bromodomain-containing protein 4 (Homo sapiens, UniProt O60885); test: Inhibitory Activity Assay: The assays of BRD4 (D1) and BRD4 (D2) were conducted in a 384-well polystyrene plate. The test compounds were first serially diluted in DMSO and the test compound/DMSO were transferred to 384-well plates. The final concentration of DMSO in the assay was 0.1%. 2 volumes of protein/peptide mixture were added into 384-well plates, then 2 volumes of assay mixture were added, and shake for 30 s. The plate was incubated at room temperature for 2 h. Then the HTRF signal on EnVision was readed.
IC50 overview
Entry rule: numbers only, all in nM.

Reference set (2 entries):
{"structure.smiles": "Cc1nc2ncc(-c3cn(C)c(=O)c4[nH]ccc34)nc2n1Cc1ccc(Cl)cc1", "test.value": 6.9}
{"structure.smiles": "CCS(=O)(=O)Nc1cc(-c2cn(C)c(=O)c3[nH]ccc23)cc2c1nc(C)n2Cc1ccc(Cl)cc1", "test.value": 1}

Now for the compound whose IC50 we want.
Query for Bromodomain-containing protein 4 (Homo sapiens, UniProt O60885): what IC50 does the record show for Cc1nc2ncc(-c3cn(C)c(=O)c4[nH]ccc34)cc2n1Cc1cccc(Cl)c1 ?
4.2

Origin of the recorded values: ChEMBL document CHEMBL5729371
